Where do these numbers come from? They come from patent US8497278B2.

Answer each item with its documented Number of Punished Crossings Mean ± S.E.M..
System: Swiss Webster (CFW) mice
Assay: Four Plate Test (FPT)
Assay type: in vivo
Conditions: mouse, 10 mg/kg PO, 30 min before test, 2 min session
Method: Four Plate Test (FPT) Protocol: The four plate test (FPT) is an animal model of anxiety in which simple ongoing behavior (exploration of novel surroundings) is suppressed by the delivery of mild electric foot-shock contingent to quadrant crossing (Aron, et al., 1971). […] Male Swiss Webster (CFW) mice from Charles River (Wilmington, Mass.) were used for the FPT. […] The number of punished crossings was recorded during the 2 min test session. […]
Answers are plain numbers.

Below is a list of compounds. For each, state its recorded Number of Punished Crossings Mean ± S.E.M..
1. Cc1ccn(Cc2c(-c3ccc(Cl)cc3)nc3ccccn23)c(=O)n1
2. Clc1ccc(-c2nc3ccccn3c2Cc2ncn[nH]2)cc1
3. NC(=O)c1nccn1Cc1c(-c2ccc(Cl)cc2)nc2ccccn12

Result:
[5.5, 8.6, 6.9]
